assay: Probe fluorescence ratio response to arachidonate:BSA complex, relative to ADIFAB2 (ΔR/ΔRAD2); type: binding; conditions: arachidonate (AA); response relative to ADIFAB2
The entries below come with measured DR/DR AA values attached.
Lab note: jot the number down without any unit.

Molecule	Assay result
11Q1, L72A (protein, UniProt P02693 2-132, looked up, variant N11Q L72A, acrylodan label) Fatty acid-binding protein, …: AFDGTWKVDRQENYEKFMEKMGINVVKRKLGAHDNLKLTITQEGNKFTVKESSNFRNIDVVFELGVDFAYSAADGTELTGTWTMEGNKLVGKFKRVDNGKELIAVREISGNELIQTYTYEGVEAKRIFKKE	1.33

Now for a further molecule.
GET /values?readout=DR/DR AA&item= 14Y, 72A wt (protein, UniProt P02693 2-132, looked up, variant L72A, acrylodan label) Fatty acid-binding protein, …: AFDGTWKVDRNENYEKFMEKMGINVVKRKLGAHDNLKLTITQEGNKFTVKESSNFRNIDVVFELGVDFAYSAADGTELTGTWTMEGNKLVGKFKRVDNGKELIAVREISGNELIQTYTYEGVEAKRIFKKE
1.29

Recorded values, source patent US20050244864A1.
